# Experimental target: human FPR2 (Homo sapiens (Human))
# Assay info: FPR2 cyclic adenosine monophosphate (cAMP) assay
# Format: cell-based
# Recorded conditions: CHO cells overexpressing human FPR2; cAMP assay; read-out: hFPR2 agonist activity EC50 (hFPR2 Assay)
Quantity: EC50

Which EC50 reading was recorded for the molecule O=C(Nc1ccc(C(F)(F)F)cc1)N[C@@H]1CCCN(c2ccc(N3CCCC(O)C3)cc2)C1=O (stereo partly shown) [Example 31] ?
10 to 100 nM

Similarly, CS(=O)(=O)C1CCN(c2ccc(N3CCC[C@@H](NC(=O)Nc4ccc(Cl)cc4F)C3=O)c(F)c2F)C1 (stereo partly shown) [Example 89] ?
≤ 10 nM

Next molecule up: CC1CCCN(c2ccc(N3CCC[C@@H](NC(=O)Nc4ccc(C(F)(F)F)cc4)C3=O)cc2)C1 (stereo partly shown) [Example 38]
≤ 10 nM

Request: O=C(Nc1ccc(Cl)cc1)N[C@@H]1CCCN(c2ccc(N3CCC4(CC4)C3)cc2)C1=O [Example 96]
≤ 10 nM

O=C(Nc1ccc(C(F)(F)F)cc1)N[C@@H]1CCCN(c2ccc(N3CCCC(CO)C3)nc2)C1=O (stereo partly shown) [Example 64] ?
100 to 1000 nM

Entry COCC1CCCN1c1ccc(N2CCC[C@@H](NC(=O)Nc3ccc(C(F)(F)F)cc3)C2=O)cc1 (stereo partly shown) [Example 66] please
≤ 10 nM

Next entry: O=C(Nc1ccc(Cl)cc1)N[C@@H]1CCCN(c2ccc(N3C[C@@H](F)[C@@H](F)C3)cc2)C1=O [Example 98]
≤ 10 nM

---

# Experimental target: UniProt:P25090
# Assay info: FPR2 cyclic adenosine monophosphate (cAMP) assay
# Type: cell-based
# Recorded conditions: CHO cells overexpressing human FPR2; cAMP assay; read-out: hFPR2 agonist activity EC50 (hFPR2 Assay)
Quantity: EC50

Look up EC50 for this compound: O=C(Nc1ccc(C(F)(F)F)cc1)N[C@@H]1CCCN(c2ccc(N3CC[C@@H](O)C3)nc2)C1=O
10 to 100 nM

Repeat with CN(C)C1CN(c2ccc(N3CCC[C@@H](NC(=O)Nc4ccc(C(F)(F)F)cc4)C3=O)cc2)CC1F (some centres unmarked)
≤ 10 nM

One more compound: O=C(Nc1ccc(C(F)(F)F)cc1)N[C@@H]1CCCN(c2ccc(N3CC(O)C(F)C3)cc2)C1=O (some centres unmarked)
≤ 10 nM

Also check CC1CCN(c2ccc(N3CCC[C@@H](NC(=O)Nc4ccc(C(F)(F)F)cc4)C3=O)cn2)CC1
10 to 100 nM

// same read-out, input: O=C(Nc1ccc(C(F)(F)F)cc1)N[C@@H]1CCCN(c2ccc(N3CCOCC3)cc2)C1=O
≤ 10 nM

Let us now turn to O=C(Nc1ccc(Cl)cc1)N[C@@H]1CCCN(c2ccc(N3CCC(C4CC4)C3)cc2)C1=O (some centres unmarked)
≤ 10 nM

Could you do the same for COCC1COCCN1c1ccc(N2CCC[C@@H](NC(=O)Nc3ccc(C(F)(F)F)nc3)C2=O)cc1 (some centres unmarked) , please?
100 to 1000 nM

Now the compound COC1CCN(c2ccc(N3CCC[C@@H](NC(=O)Nc4ccc(Cl)cc4)C3=O)cc2)C1 (some centres unmarked)
≤ 10 nM

Also, CN(CC(F)(F)F)C1CCN(c2ccc(N3CCC[C@@H](NC(=O)Nc4ccc(Cl)cc4)C3=O)c(F)c2F)C1 (some centres unmarked) please.
≤ 10 nM

# iterate: O=C(Nc1ccc(C(F)(F)F)cc1)N[C@@H]1CCCN(c2ccc(N3CC[C@@H](O)C3)cc2)C1=O
≤ 10 nM

Now consider O=C(Nc1ccc(C(F)(F)F)cc1)N[C@@H]1CCCN(c2ccc(N3CCC(CO)C3)cc2)C1=O (some centres unmarked) .
≤ 10 nM

Same again, this time with O=C(Nc1ccc(Cl)cc1F)N[C@@H]1CCCN(c2ccc(N3CCCCC3=O)c(F)c2F)C1=O
≤ 10 nM

Request: O=C(Nc1ccc(C(F)(F)F)cc1)N[C@@H]1CCCN(c2ccc(N3CCCC(F)C3)nc2)C1=O (some centres unmarked)
10 to 100 nM

What do you get for CS(=O)(=O)C1CCN(c2ccc(N3CCC[C@@H](NC(=O)Nc4ccc(C(F)(F)F)cc4)C3=O)cc2)C1 (some centres unmarked) ?
≤ 10 nM

Can you handle C[C@@H]1CN(c2ccc(N3CCC[C@@H](NC(=O)Nc4ccc(C(F)(F)F)cc4)C3=O)cc2)C[C@H](C)O1 next?
10 to 100 nM

For O=C(Nc1ccc(C(F)(F)F)cc1)N[C@@H]1CCCN(c2ccc(N3CCC(F)(F)C3)cc2)C1=O then?
≤ 10 nM

Same again, this time with COC[C@@H]1CCCN1c1ccc(N2CCC[C@@H](NC(=O)Nc3ccc(C(F)(F)F)cn3)C2=O)cn1
100 to 1000 nM

Then CN(C)C1CCN(c2ccc(N3CCC[C@@H](NC(=O)Nc4ccc(Cl)cc4)C3=O)cn2)C1 (some centres unmarked) ?
≤ 10 nM

Ok, now CC(C)N1CCN(c2ccc(N3CCC[C@@H](NC(=O)Nc4ccc(C(F)(F)F)cc4)C3=O)cc2)CC1
10 to 100 nM

Same question for O=C(Nc1ccc(C(F)(F)F)cn1)N[C@@H]1CCCN(c2ccc(N3CC4(COC4)C3)cc2)C1=O please.
100 to 1000 nM

What about this compound? COC[C@@H]1CCCN1c1ccc(N2CCC[C@@H](NC(=O)Nc3ccc(C(F)(F)F)cc3)C2=O)cc1
10 to 100 nM

Could you do the same for CN(C)C1CN(c2ccc(N3CCC[C@@H](NC(=O)Nc4ccc(C(F)(F)F)cc4)C3=O)cc2)CC1O (some centres unmarked) , please?
≤ 10 nM

Would you mind doing CN(C)C(=O)C1CCN(c2ccc(N3CCC[C@@H](NC(=O)Nc4ccc(Cl)cc4F)C3=O)cc2)C1 (some centres unmarked) as well?
≤ 10 nM

---

# Experimental target: human FPR1 (Homo sapiens (Human), UniProt P21462)
# Sequence (P21462 whole entry): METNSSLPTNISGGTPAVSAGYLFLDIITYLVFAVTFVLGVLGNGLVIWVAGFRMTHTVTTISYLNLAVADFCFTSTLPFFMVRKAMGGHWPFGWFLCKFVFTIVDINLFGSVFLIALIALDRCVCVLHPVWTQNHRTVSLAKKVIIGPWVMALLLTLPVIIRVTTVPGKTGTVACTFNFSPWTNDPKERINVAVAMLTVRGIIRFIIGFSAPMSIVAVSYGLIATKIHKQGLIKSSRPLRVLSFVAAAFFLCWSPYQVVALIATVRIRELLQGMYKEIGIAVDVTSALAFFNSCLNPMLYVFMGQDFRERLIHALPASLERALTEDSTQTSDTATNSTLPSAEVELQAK
# Assay info: FPR1 cyclic adenosine monophosphate (cAMP) assay
# Recorded conditions: CHO cells overexpressing human FPR1; forskolin 10 μM; inhibition of cAMP production; read-out: hFPR1 cAMP EC50
Quantity: log10 of EC50 (log10 of the value in nM)
# log10 transformed; quantity=EC50; unit=nM

Fill in the blank: the reported log10 of EC50 of O=C(Nc1ccc(Cl)cc1)N[C@@H]1CCCN(c2ccc(N3C[C@H]4COC[C@H]4C3)cc2)C1=O is ____.
1.88

Entry O=C(Nc1ccc(Cl)cc1)N[C@@H]1CCCN(c2ccc(N3CCC4(CCCO4)CC3)cc2)C1=O please
1.79

Same for CN(C)C1CCN(c2ccc(N3CCC[C@@H](NC(=O)Nc4ccc(Cl)cc4F)C3=O)c(F)c2)C1 (stereo partly shown)
3.23

// query: O=C(Nc1ccc(Cl)cc1)N[C@@H]1CCCN(c2ccc(N3C[C@H]4CC[C@@H](C3)O4)cc2F)C1=O
2.52

What do you get for O=C(Nc1ccc(C(F)(F)F)cn1)N[C@@H]1CCCN(c2ccc(N3CC4(COC4)C3)cc2)C1=O ?
3.70

Entry to check: CN(C)C1CCCN(c2ccc(N3CCC[C@@H](NC(=O)Nc4ccc(C(F)(F)F)cc4)C3=O)cc2)C1 (stereo partly shown)
3.04

// query: O=C(Nc1ccc(C(F)(F)F)cc1)N[C@@H]1CCCN(c2ccc(N3CCCC(CO)C3)nc2)C1=O (stereo partly shown)
1.65

Could you do the same for O=C(Nc1ccc(C(F)(F)F)cc1)N[C@@H]1CCCN(c2ccc(N3C[C@H]4CC[C@@H](C3)O4)nc2)C1=O , please?
2.80

Now consider O=C(Nc1ccc(C(F)(F)F)cc1)N[C@@H]1CCCN(c2ccc(N3CCCCC3)cc2)C1=O .
1.04

Queued: CN(C)C1CCN(c2ccc(N3CCC[C@@H](NC(=O)Nc4ccc(Cl)cc4)C3=O)cc2F)C1 (stereo partly shown)
3.04

Here is the next compound: O=C(Nc1ccc(C(F)(F)F)cc1)N[C@H]1CCCN(c2ccc(N3CC4(COC4)C3)cc2)C1=O
3.18

Ok, now O=C(Nc1ccc(C(F)(F)F)cc1)N[C@@H]1CCCN(c2ccc(N3CCCC(F)(F)C3)cc2)C1=O
1.83

Entry to check: COCC1CCCCN1c1ccc(N2CCC[C@@H](NC(=O)Nc3ccc(C(F)(F)F)nc3)C2=O)cc1 (stereo partly shown)
2.82

---

Can you tell me pEC50 for the items I'm about to list?
# Experimental target: human FPR2 (Homo sapiens (Human), UniProt P25090)
# Sequence (P25090 whole entry): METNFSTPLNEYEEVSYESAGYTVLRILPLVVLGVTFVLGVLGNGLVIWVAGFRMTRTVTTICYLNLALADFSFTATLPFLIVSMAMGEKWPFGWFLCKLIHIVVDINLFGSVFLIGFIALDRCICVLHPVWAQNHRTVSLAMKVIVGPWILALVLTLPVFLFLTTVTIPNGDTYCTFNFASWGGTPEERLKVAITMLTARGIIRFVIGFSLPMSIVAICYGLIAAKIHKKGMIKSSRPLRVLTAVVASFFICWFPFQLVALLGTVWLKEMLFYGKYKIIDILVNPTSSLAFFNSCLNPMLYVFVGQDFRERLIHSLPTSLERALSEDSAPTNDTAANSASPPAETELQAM
# Assay info: FPR2 cyclic adenosine monophosphate (cAMP) assay
# Type: cell-based
# Recorded conditions: CHO cells overexpressing human FPR2; cAMP assay; read-out: hFPR2 agonist activity EC50 (hFPR2 Assay)
pEC50: −log10 of the molar value.

Quick check: pEC50 of O=C(Nc1ccc(C(F)(F)F)cc1)N[C@H]1CCCN(c2ccc(N3CC4(COC4)C3)cc2)C1=O ?
6.00 to 7.00

Field entry: COCC1COCCN1c1ccc(N2CCC[C@@H](NC(=O)Nc3ccc(C(F)(F)F)cc3)C2=O)cc1 (stereo partly drawn) [Example 21]
≥ 8.00

# iterate: CC1CCN(c2ccc(N3CCC[C@@H](NC(=O)Nc4ccc(C(F)(F)F)cc4)C3=O)cc2)CC1
7.00 to 8.00

Ok, now O=C(Nc1ccc(Cl)cc1F)N[C@@H]1CCCN(c2ccc(N3CC[C@@H](F)C3)cc2)C1=O
≥ 8.00

Now consider O=C(Nc1ccc(C(F)(F)F)cc1)N[C@H]1CCCN(c2ccc(N3CCCC(O)C3)cc2)C1=O (stereo partly drawn) .
6.00 to 7.00

Would you mind doing COCC1CCCCN1c1ccc(N2CCC[C@@H](NC(=O)Nc3cnc(C(F)(F)F)cn3)C2=O)c(F)c1 (stereo partly drawn) as well?
≥ 8.00

Now consider O=C(Nc1ccc(C(F)(F)F)nc1)N[C@@H]1CCCN(c2ccc(N3C[C@H]4CC[C@@H](C3)O4)cc2)C1=O and answer again.
6.00 to 7.00

Another compound to check: COC[C@@H]1CCCN1c1ccc(N2CCC[C@@H](NC(=O)Nc3ccc(C(F)(F)F)nc3)C2=O)cc1
7.00 to 8.00

O=C(Nc1ccc(C(F)(F)F)cn1)N[C@@H]1CCCN(c2ccc(N3CCCCC3=O)cc2F)C1=O ?
6.00 to 7.00

Try this compound next: COC[C@@H]1CCCN1c1ccc(N2CCC[C@@H](NC(=O)Nc3ccc(Cl)cc3)C2=O)cc1
≥ 8.00

Now give it for CC1(O)CCCN(c2ccc(N3CCC[C@@H](NC(=O)Nc4ccc(Cl)cc4)C3=O)cc2)C1 (stereo partly drawn) too.
≥ 8.00

Another compound to check: CS(=O)(=O)C1CCN(c2cc(F)c(N3CCC[C@@H](NC(=O)Nc4ccc(Cl)cc4F)C3=O)c(F)c2)C1 (stereo partly drawn)
≥ 8.00

# iterate: O=C(Nc1ccc(Cl)cc1F)N[C@@H]1CCCN(c2ccc(N3CC[C@@H](O)C3)nc2)C1=O
≥ 8.00

Lookup O=C(Nc1ccc(C(F)(F)F)cc1)N[C@@H]1CCCN(c2ccc(N3CCCC(C(F)(F)F)C3)cc2)C1=O (stereo partly drawn)
≥ 8.00

Continue with O=C(Nc1ccc(Cl)nc1)N[C@@H]1CCCN(c2ccc(N3CC[C@@H](O)C3)cc2)C1=O
7.00 to 8.00

Can you check C[C@@H]1COCCN1c1ccc(N2CCC[C@@H](NC(=O)Nc3ccc(C(F)(F)F)cc3)C2=O)cc1 next?
≥ 8.00

Also check COCC1CCCCN1c1ccc(N2CCC[C@@H](NC(=O)Nc3ccc(C(F)(F)F)nc3)C2=O)cc1 (stereo partly drawn)
7.00 to 8.00

Moving on to the next compound: CC1(C)CCN(c2ccc(N3CCC[C@@H](NC(=O)Nc4ccc(C(F)(F)F)cc4)C3=O)cc2)CC1
7.00 to 8.00

How about C[C@H]1COCCN1c1ccc(N2CCC[C@@H](NC(=O)Nc3ccc(C(F)(F)F)nc3)C2=O)cc1 ?
6.00 to 7.00

Entry O=C(Nc1ccc(C(F)(F)F)cc1)N[C@@H]1CCCN(c2ccc(N3CCCCC3=O)cc2)C1=O please
7.00 to 8.00

Also, CS(=O)(=O)C1CCN(c2ccc(N3CCC[C@@H](NC(=O)Nc4ccc(Cl)cc4)C3=O)c(F)c2F)C1 (stereo partly drawn) please.
≥ 8.00

Next: O=C(Nc1ccc(C(F)(F)F)cc1)N[C@@H]1CCCN(c2ccc(N3C[C@H]4CC[C@@H](C3)O4)cc2)C1=O
≥ 8.00

Follow-up item: CCN1CCN(c2ccc(N3CCC[C@@H](NC(=O)Nc4ccc(C(F)(F)F)cc4)C3=O)cc2)CC1
7.00 to 8.00

Follow-up entry: CN(C)C1CCN(c2ccc(N3CCC[C@@H](NC(=O)Nc4ccc(Cl)cc4)C3=O)c(F)c2F)C1 (stereo partly drawn)
≥ 8.00

Would you mind doing O=C(Nc1ccc(C(F)(F)F)cc1)N[C@@H]1CCCN(c2ccc(N3CCCC(O)C3)nc2)C1=O (stereo partly drawn) as well?
7.00 to 8.00

Next up: COC1CCN(c2ccc(N3CCC[C@@H](NC(=O)Nc4ccc(C(F)(F)F)cc4)C3=O)cn2)CC1
7.00 to 8.00

Lookup O=C(Nc1ccc(Cl)cc1F)N[C@@H]1CCCN(c2ccc(N3CC[C@@H](F)C3)nc2)C1=O
≥ 8.00

Then this compound: O=C(Nc1ccc(C(F)(F)F)cc1)N[C@@H]1CCCN(c2ccc(N3CCCCC3=O)cc2F)C1=O
7.00 to 8.00

Continue with O=C(Nc1ccc(Cl)cc1)N[C@@H]1CCCN(c2ccc(N3CCC(O)(C(F)(F)F)CC3)cc2)C1=O
≥ 8.00

Lookup C[C@H]1COCCN1c1ccc(N2CCC[C@@H](NC(=O)Nc3ccc(C(F)(F)F)cc3)C2=O)cc1
7.00 to 8.00
